pIC50 for assorted molecules
Biological target: recombinant human MER (Homo sapiens, UniProt Q12866)
Sequence (Q12866 21-999): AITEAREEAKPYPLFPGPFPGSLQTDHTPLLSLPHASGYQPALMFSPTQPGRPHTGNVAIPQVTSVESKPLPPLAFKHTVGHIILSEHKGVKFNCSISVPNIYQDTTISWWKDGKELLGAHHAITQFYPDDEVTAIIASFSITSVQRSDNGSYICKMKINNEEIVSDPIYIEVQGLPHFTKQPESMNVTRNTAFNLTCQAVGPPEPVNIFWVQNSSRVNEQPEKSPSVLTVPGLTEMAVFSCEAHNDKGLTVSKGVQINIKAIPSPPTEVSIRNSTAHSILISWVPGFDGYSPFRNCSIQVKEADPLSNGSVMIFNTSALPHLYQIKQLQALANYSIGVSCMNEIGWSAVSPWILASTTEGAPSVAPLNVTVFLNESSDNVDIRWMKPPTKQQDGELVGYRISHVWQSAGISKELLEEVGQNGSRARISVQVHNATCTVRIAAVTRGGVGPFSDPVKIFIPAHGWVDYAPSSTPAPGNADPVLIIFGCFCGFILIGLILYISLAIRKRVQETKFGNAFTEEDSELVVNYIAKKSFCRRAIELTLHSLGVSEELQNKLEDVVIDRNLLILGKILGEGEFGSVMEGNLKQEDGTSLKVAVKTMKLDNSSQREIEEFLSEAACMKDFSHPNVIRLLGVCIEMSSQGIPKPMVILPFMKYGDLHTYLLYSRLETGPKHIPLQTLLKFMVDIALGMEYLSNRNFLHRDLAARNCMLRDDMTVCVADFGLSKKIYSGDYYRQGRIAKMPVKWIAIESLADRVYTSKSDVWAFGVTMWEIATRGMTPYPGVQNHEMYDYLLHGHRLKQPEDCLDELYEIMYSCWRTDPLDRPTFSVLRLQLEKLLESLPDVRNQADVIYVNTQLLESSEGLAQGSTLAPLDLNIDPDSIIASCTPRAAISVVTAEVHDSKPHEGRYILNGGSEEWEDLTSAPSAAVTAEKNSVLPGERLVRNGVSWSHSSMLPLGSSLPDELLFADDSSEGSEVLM
Assay: HTRF KinEASE-TK biochemical potency, MER
Settings: 1 nM MER, 700 μM ATP
pIC50: −log10 of the molar value.

molecule: O=C1NCCOc2cc(-c3n[nH]c4ncc(-c5ccc6c(c5)CCN(C5CC5)C6)cc34)ccc21
measurement name: pIC50
obs value: 6.00 to 7.00

molecule: C[C@@H]1CCCN1C1CCc2ccc(-c3cnc4[nH]nc(-c5ccc6c(c5)OCCNC6=O)c4c3)cc2CC1 (stereo partly shown)
measurement name: pIC50
obs value: > 7.00

molecule: C[C@@H]1CCCN1C1CCc2ccc(-c3cnc4[nH]nc(-c5ccc6c(c5)O[C@@H](C)CNC6=O)c4c3)cc2CC1 (stereo partly shown)
measurement name: pIC50
obs value: > 7.00

[Q] What pIC50 value was documented for this molecule, O=C1NCCOc2cc(-c3n[nH]c4ncc(-c5ccc6c(n5)CCC(N5CCCC5)CC6)cc34)ccc21 (stereo not shown) ?
[A] 6.00 to 7.00

---

Target: Axl (Homo sapiens)
Sequence (P30530 26-894): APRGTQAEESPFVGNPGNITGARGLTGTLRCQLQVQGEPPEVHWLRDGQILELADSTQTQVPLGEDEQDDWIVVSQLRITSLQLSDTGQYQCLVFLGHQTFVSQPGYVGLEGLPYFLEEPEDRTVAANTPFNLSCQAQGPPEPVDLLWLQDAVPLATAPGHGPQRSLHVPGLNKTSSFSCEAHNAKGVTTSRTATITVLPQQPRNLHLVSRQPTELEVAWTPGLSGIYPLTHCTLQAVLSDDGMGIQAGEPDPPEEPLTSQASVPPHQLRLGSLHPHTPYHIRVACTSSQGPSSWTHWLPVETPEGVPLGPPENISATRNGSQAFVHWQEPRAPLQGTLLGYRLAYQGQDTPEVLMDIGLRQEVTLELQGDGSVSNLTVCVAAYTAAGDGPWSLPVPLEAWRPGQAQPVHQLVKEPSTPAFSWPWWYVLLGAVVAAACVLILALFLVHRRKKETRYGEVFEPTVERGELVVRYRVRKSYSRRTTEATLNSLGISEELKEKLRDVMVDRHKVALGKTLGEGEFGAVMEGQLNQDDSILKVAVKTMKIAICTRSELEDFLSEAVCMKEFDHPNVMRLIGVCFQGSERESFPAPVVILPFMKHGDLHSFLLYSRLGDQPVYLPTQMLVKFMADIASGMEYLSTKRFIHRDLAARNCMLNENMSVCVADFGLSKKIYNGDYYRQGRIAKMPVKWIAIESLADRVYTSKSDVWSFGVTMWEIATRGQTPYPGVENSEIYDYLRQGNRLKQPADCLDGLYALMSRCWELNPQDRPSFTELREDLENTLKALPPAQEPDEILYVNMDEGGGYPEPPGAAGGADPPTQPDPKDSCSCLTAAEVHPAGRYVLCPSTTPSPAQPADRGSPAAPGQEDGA
Assay: Axl NanoBRET intracellular kinase assay (Cell Binding)
Set-up: host or cells: HEK-293
Details: HEK-293 cells transfected with Axl-NanoLuc fusion vector; displacement of K-5 NanoBRET tracer
pIC50: −log10 of the molar value.
measurement name: pIC50

Study these solved cases before continuing.
molecule: C[C@@H]1CCCN1C1CCc2ccc(-c3cnc4[nH]nc(-c5ccc6c(c5)O[C@@H](C)CNC6=O)c4c3)cc2CC1 (stereo partly shown)
measurement name: pIC50
obs value: > 7.00
--
molecule: C[C@H]1CCCN1C1(C)CCc2ccc(-c3cnc4[nH]nc(-c5ccc6c(c5)OCCNC6=O)c4c3)cc2CC1 (stereo partly shown)
measurement name: pIC50
obs value: > 7.00
--
molecule: C[C@@H]1CCCN1C1CCc2ccc(-c3cnc4[nH]nc(-c5ccc6c(c5F)OCCNC6=O)c4c3)cc2CC1 (stereo partly shown)
measurement name: pIC50
obs value: > 7.00

[Q] Given the entry CC[C@@H]1CCCN1C1CCc2ccc(-c3cnc4[nH]nc(-c5ccc6c(c5)OCCNC6=O)c4c3)cc2CC1 (stereo partly shown) , what pIC50 was observed with Axl (Homo sapiens)?
[A] > 7.00

[Q] State its pIC50 on Axl (Homo sapiens): O=C1NCCOc2cc(-c3n[nH]c4ncc(-c5ccc6c(c5)CC(N5CCCC5)CC6)cc34)ccc21 (stereo not shown)
[A] 6.00 to 7.00

[Q] Form field: pIC50 recorded for FC1(F)Oc2ccc(-c3n[nH]c4ncc(-c5ccc6c(c5)CCN(C5CCCC5)CC6)cc34)cc2O1 with Axl (Homo sapiens) (enter value)
[A] < 6.00

[Q] API: value(readout=pIC50, system=Axl (Homo sapiens)) for record O=C1NCCOc2cc(-c3n[nH]c4ncc(-c5ccc6c(c5)CCC(N5CCCC5)CC6)cc34)ccc21 (racemic)
[A] > 7.00
